# TESTED_SYSTEM: UniProt P08183
# PROTOCOL_DETAILS: Inhibition of ABCB1 in multidrug resistant human COLO320 cells assessed as fluorescence activity ratio at 0.2 uM incubated for 10 mins by flow cytometry based rhodamine-123 accumulation assay (reference value: 0.62)
Assign Ratio to each entry below.
The answer should be a number; do not append a unit.

# Ratio of C/C1=C\[C@@H]2[C@H](CC[C@]3(CO3)[C@H](OC(=O)c3cccc(C)c3)[C@H]3[C@@H](OC(=O)c4cccc(C)c4)[C@@H](C)C[C@]3(O)C1=O)C2(C)C = 3

Ratio reading for C/C1=C\[C@@H]2[C@H](CC[C@@](C)(O)[C@H](O)[C@H]3[C@@H](OC(=O)c4ccccc4)[C@@H](C)C[C@]3(O)[C@H]1OC(=O)c1ccccc1)C2(C)C : 1.48

Lab note: measured Ratio of C/C1=C\[C@@H]2[C@H](CC[C@]3(CO3)[C@H](OC(=O)c3ccc(N(C)C)cc3)[C@H]3[C@@H](OC(=O)c4ccc(N(C)C)cc4)[C@@H](C)C[C@]3(O)C1=O)C2(C)C was 1.02

---

# TESTED_SYSTEM: ATP-dependent translocase ABCB1 (Homo sapiens, UniProt P08183)
# Sequence (P08183 whole entry): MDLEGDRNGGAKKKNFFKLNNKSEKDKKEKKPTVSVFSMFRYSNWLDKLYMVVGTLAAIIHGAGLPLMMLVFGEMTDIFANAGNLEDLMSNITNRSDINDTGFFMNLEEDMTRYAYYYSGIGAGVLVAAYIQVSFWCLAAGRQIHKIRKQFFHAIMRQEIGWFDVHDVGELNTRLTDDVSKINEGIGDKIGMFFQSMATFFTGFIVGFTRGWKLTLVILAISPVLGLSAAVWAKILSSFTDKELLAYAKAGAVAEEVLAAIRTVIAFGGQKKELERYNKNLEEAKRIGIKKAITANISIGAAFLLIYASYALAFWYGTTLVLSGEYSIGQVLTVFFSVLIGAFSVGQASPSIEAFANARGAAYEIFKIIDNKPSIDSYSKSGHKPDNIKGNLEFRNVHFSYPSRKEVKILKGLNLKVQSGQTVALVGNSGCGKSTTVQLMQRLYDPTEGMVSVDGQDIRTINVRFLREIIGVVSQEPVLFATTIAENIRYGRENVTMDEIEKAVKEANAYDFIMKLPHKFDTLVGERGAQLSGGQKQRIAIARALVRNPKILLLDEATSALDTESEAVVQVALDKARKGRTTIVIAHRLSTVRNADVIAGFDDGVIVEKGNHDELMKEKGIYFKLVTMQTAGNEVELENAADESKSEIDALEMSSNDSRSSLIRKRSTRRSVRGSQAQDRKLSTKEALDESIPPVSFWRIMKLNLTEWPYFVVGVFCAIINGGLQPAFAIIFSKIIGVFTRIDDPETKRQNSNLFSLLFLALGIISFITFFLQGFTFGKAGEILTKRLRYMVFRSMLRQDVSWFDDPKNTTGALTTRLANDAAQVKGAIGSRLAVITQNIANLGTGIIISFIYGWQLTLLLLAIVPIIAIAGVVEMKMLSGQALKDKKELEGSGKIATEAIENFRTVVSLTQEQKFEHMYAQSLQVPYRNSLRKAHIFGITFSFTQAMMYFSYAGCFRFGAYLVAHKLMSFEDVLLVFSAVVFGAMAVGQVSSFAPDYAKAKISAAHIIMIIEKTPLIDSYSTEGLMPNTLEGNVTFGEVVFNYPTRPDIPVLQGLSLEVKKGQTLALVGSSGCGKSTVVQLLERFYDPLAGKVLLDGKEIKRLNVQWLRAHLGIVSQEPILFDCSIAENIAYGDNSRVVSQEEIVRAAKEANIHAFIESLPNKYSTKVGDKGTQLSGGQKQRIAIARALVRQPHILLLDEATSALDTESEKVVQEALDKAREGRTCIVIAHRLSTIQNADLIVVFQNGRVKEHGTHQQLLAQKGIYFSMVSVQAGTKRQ
# PROTOCOL_DETAILS: Inhibition of ABCB1 in multidrug resistant human COLO320 cells assessed as fluorescence activity ratio at 20 uM incubated for 10 mins by flow cytometry based rhodamine-123 accumulation assay (reference value: 0.62)
Rule: Ratio below 2 gives Criterion met, anything at or above gives Criterion not met.

IN: Does this molecule meet the criterion Ratio < 2? CO[C@H]1[C@@H]2[C@H](CC[C@]3(COC(=O)c4ccccc4)O[C@@H]3[C@H]3[C@@H](OC(=O)c4ccccc4)[C@@H](C)C[C@]3(O)C(=O)[C@@H]1C)C2(C)C
OUT: Criterion not met

IN: Does C/C1=C\[C@@H]2[C@H](CC[C@]3(CO3)[C@H](OC(=O)N3CCOCC3)[C@H]3[C@@H](OC(=O)N4CCOCC4)[C@@H](C)C[C@]3(O)C1=O)C2(C)C have Ratio strictly under 2?
OUT: Criterion met

IN: Please indicate whether the reported Ratio of C/C1=C\[C@@H]2[C@H](CC[C@]3(CO3)[C@H](OC(=O)N(C)C)[C@H]3[C@@H](O)[C@@H](C)C[C@]3(O)C1=O)C2(C)C is strictly below 2.
OUT: Criterion met

IN: Dear reviewer, please state whether CO[C@H]1[C@@H]2[C@H](CC[C@]3(CO)O[C@@H]3[C@H]3[C@@H](O)[C@@H](C)C[C@]3(O)C(=O)[C@@H]1C)C2(C)C has Ratio strictly beneath 2.
OUT: Criterion not met

IN: Strictly below 2 in Ratio? C/C1=C\[C@@H]2[C@H](CC[C@]3(CO3)[C@H](OC(=O)c3ccc(C(F)(F)F)cc3)[C@H]3[C@@H](OC(=O)c4ccc(C(F)(F)F)cc4)[C@@H](C)C[C@]3(O)C1=O)C2(C)C
OUT: Criterion not met

---

# TESTED_SYSTEM: UniProt P08183
# PROTOCOL_DETAILS: Inhibition of human ABCB1 expressed in mouse L5178Y cells assessed as fluorescence activity ratio at 20 uM incubated for 10 mins by flow cytometry based rhodamine-123 accumulation assay (reference value: 0.78)
# Type: cell-based
OBSERVABLE: Ratio

Item C/C1=C\[C@@H]2[C@H](CC[C@@](C)(O)[C@H](O)[C@H]3[C@@H](OC(=O)c4ccccc4)[C@@H](C)C[C@]3(O)[C@H]1O)C2(C)C was tested on UniProt P08183; the reported Ratio is 33.19

Entry CO[C@H]1[C@@H]2[C@H](CC[C@]3(CO)O[C@@H]3[C@H]3[C@@H](O)[C@@H](C)C[C@]3(O)C(=O)[C@@H]1C)C2(C)C , tested on UniProt P08183, has a reported Ratio of 18.3

Readout Ratio for C/C1=C\[C@@H]2[C@H](CC[C@]3(CO3)[C@H](OC(=O)c3cccs3)[C@H]3[C@@H](OC(=O)c4cccs4)[C@@H](C)C[C@]3(O)C1=O)C2(C)C , test system UniProt P08183, was 68.74

Lab note: molecule COc1ccccc1C(=O)OC[C@]1(C)CC[C@H]2[C@@H](/C=C(\C)C(=O)[C@@]3(O)C[C@H](C)[C@H](OC(=O)c4ccccc4OC)[C@@H]3[C@H]1O)C2(C)C tested on UniProt P08183; recorded Ratio was 55.43

The reported Ratio value, UniProt P08183, for C/C1=C\[C@@H]2[C@H](CC[C@]3(CO3)[C@H](OC(=O)N(C)C)[C@H]3[C@@H](O)[C@@H](C)C[C@]3(O)C1=O)C2(C)C reads 1.61

Given the molecule C/C1=C\[C@@H]2[C@H](CC[C@]3(CO3)[C@H](OC(=O)C34CC5CC(CC(C5)C3)C4)[C@H]3[C@@H](OC(=O)C45CC6CC(CC(C6)C4)C5)[C@@H](C)C[C@]3(O)C1=O)C2(C)C and test system UniProt P08183, the measured Ratio is 31.69

Reading of Ratio for CO[C@H]1[C@@H]2[C@H](CC[C@]3(COC(C)=O)O[C@@H]3[C@H]3[C@@H](OC(C)=O)[C@@H](C)C[C@]3(O)C(=O)[C@@H]1C)C2(C)C with UniProt P08183: 2.07

Entry C/C1=C\[C@@H]2[C@H](CC[C@]3(CO3)[C@H](O)[C@H]3[C@@H](O)[C@@H](C)C[C@]3(O)C1=O)C2(C)C under UniProt P08183 had Ratio of 1.49

Record C/C1=C\[C@@H]2[C@H](CC[C@]3(CO3)[C@H](OC(=O)c3ccco3)[C@H]3[C@@H](OC(=O)c4ccco4)[C@@H](C)C[C@]3(O)C1=O)C2(C)C / UniProt P08183, Ratio recorded as 42.56

Lab entry: UniProt P08183 assay, molecule CO[C@H]1[C@@H]2[C@H](CC[C@]3(COC(=O)c4ccc(C(F)(F)F)cc4)O[C@@H]3[C@H]3[C@@H](OC(=O)c4ccc(C(F)(F)F)cc4)[C@@H](C)C[C@]3(O)C(=O)[C@@H]1C)C2(C)C , Ratio = 41.81

Result for C/C1=C\[C@@H]2[C@H](CC[C@@](C)(O)[C@H](O)[C@H]3[C@@H](OC(=O)c4ccccc4)[C@@H](C)C[C@]3(O)[C@H]1OC(=O)c1ccccc1)C2(C)C , tested on UniProt P08183, Ratio: 71.12

The molecule CO[C@H]1[C@@H]2[C@H](CC[C@]3(COC(=O)c4ccccc4)O[C@@H]3[C@H]3[C@@H](OC(=O)c4ccccc4)[C@@H](C)C[C@]3(O)C(=O)[C@@H]1C)C2(C)C on UniProt P08183: Ratio was 71.78

UniProt P08183 Ratio of C/C1=C\[C@@H]2[C@H](CC[C@]3(CO3)[C@H](OC(=O)c3ccc(N(C)C)cc3)[C@H]3[C@@H](OC(=O)c4ccc(N(C)C)cc4)[C@@H](C)C[C@]3(O)C1=O)C2(C)C is 56.81

Here C/C1=C\[C@@H]2[C@H](CC[C@]3(CO3)[C@H](OC(=O)c3ccc(-c4ccccc4)cc3)[C@H]3[C@@H](OC(=O)c4ccc(-c5ccccc5)cc4)[C@@H](C)C[C@]3(O)C1=O)C2(C)C was tested on UniProt P08183, and its Ratio came to 30.97

The molecule CCO[C@@H]1[C@@H]2C(=O)C(O)(C[C@H](C)[C@@H]2O)/C(C)=C\[C@@H]2[C@H](CC[C@@]1(O)CO)C2(C)C , tested on UniProt P08183, showed Ratio of 38.92

Summary: C/C1=C\[C@@H]2[C@H](CC[C@@](C)(O)[C@H](O)[C@H]3[C@@H](O)[C@@H](C)C[C@]3(O)[C@@H]1O)C2(C)C , UniProt P08183, Ratio = 11.61

Short answer on UniProt P08183 for C/C1=C\[C@@H]2[C@H](CC[C@]3(CO3)[C@H](OC(=O)N3CCOCC3)[C@H]3[C@@H](OC(=O)N4CCOCC4)[C@@H](C)C[C@]3(O)C1=O)C2(C)C , Ratio: 1.38

Record C/C1=C\[C@@H]2[C@H](CC[C@]3(CO3)[C@H](OC(=O)c3ccc(C(F)(F)F)cc3)[C@H]3[C@@H](OC(=O)c4ccc(C(F)(F)F)cc4)[C@@H](C)C[C@]3(O)C1=O)C2(C)C has UniProt P08183 Ratio equal to 38.97

Form: item C/C1=C\[C@@H]2[C@H](CC[C@]3(CO3)[C@H](OC(=O)c3cccc(C)c3)[C@H]3[C@@H](OC(=O)c4cccc(C)c4)[C@@H](C)C[C@]3(O)C1=O)C2(C)C ; test system UniProt P08183; Ratio: 83.29

---

# TESTED_SYSTEM: ATP-dependent translocase ABCB1 (Homo sapiens)
# PROTOCOL_DETAILS: Inhibition of human ABCB1 expressed in mouse L5178Y cells assessed as potentiation of 2 mg/ml doxorubicin-induced cytotoxicty by measuring combination index at 5:1 compound to doxorubicin ratio incubated for 48 hrs by MTT assay
# Format: cell-based
Would you mind telling me the reported CI of each entry?
Number, no unit, nothing else.

Measured CI, C/C1=C\[C@@H]2[C@H](CC[C@]3(CO3)[C@H](OC(=O)c3ccco3)[C@H]3[C@@H](OC(=O)c4ccco4)[C@@H](C)C[C@]3(O)C1=O)C2(C)C : 0.053

Value of CI reported for the molecule C/C1=C\[C@@H]2[C@H](CC[C@]3(CO3)[C@H](OC(=O)c3ccc(N(C)C)cc3)[C@H]3[C@@H](OC(=O)c4ccc(N(C)C)cc4)[C@@H](C)C[C@]3(O)C1=O)C2(C)C is 0.172

Record CO[C@H]1[C@@H]2[C@H](CC[C@]3(COC(=O)c4ccc(C(F)(F)F)cc4)O[C@@H]3[C@H]3[C@@H](OC(=O)c4ccc(C(F)(F)F)cc4)[C@@H](C)C[C@]3(O)C(=O)[C@@H]1C)C2(C)C . Reported CI: 0.054

# CI of CC(=O)O[C@@H]1[C@@H]2[C@@H](OC(C)=O)[C@](C)(OC(C)=O)CC[C@H]3[C@@H](/C=C(\C)[C@H](OC(C)=O)[C@@]2(OC(C)=O)C[C@@H]1C)C3(C)C = 0.205

The molecule listed as CO[C@H]1[C@@H]2[C@H](CC[C@]3(COC(=O)c4ccccc4)O[C@@H]3[C@H]3[C@@H](OC(=O)c4ccccc4)[C@@H](C)C[C@]3(O)C(=O)[C@@H]1C)C2(C)C shows CI equal to 0.057

// recorded CI for C/C1=C\[C@@H]2[C@H](CC[C@]3(CO3)[C@H](OC(=O)c3cccc(C)c3)[C@H]3[C@@H](OC(=O)c4cccc(C)c4)[C@@H](C)C[C@]3(O)C1=O)C2(C)C : 0.066

C/C1=C\[C@@H]2[C@H](CC[C@]3(CO3)[C@H](OC(=O)c3cccs3)[C@H]3[C@@H](OC(=O)c4cccs4)[C@@H](C)C[C@]3(O)C1=O)C2(C)C has a reported CI of 0.196

Memo: COc1cccc(C(=O)O[C@@H]2[C@@H]3[C@@H](OC(=O)c4cccc(OC)c4)[C@]4(CC[C@H]5[C@@H](/C=C(\C)C(=O)[C@@]3(O)C[C@@H]2C)C5(C)C)CO4)c1 , reported CI: 0.097

Data origin: ChEMBL document CHEMBL3608294
